- Format: in vivo, human
- condition: both, human, plasma, sc, 450 mg
property_label: AUC(0-t) (ng·h/mL)
Respond with the bare value in ng·h/mL.

Answer with reported AUC(0-t) of CC(C)(C#Cc1ccc(-c2ccc(Cl)c3c(NS(C)(=O)=O)nn(CC(F)(F)F)c23)c([C@H](Cc2cc(F)cc(F)c2)NC(=O)Cn2nc(C(F)(F)F)c3c2C(F)(F)[C@@H]2C[C@H]32)n1)S(C)(=O)=O [GS-6207]
97600

====

- run_description: Study GS-US-200-4072: pharmacokinetics in participants living with HIV
- Type: in vivo, human
- condition: both, human, plasma, sc, 50 mg
property_label: concentration at 9 day (ng/mL)
Respond with the bare value in ng/mL.

Answer with reported concentration at 9 day of CC(C)(C#Cc1ccc(-c2ccc(Cl)c3c(NS(C)(=O)=O)nn(CC(F)(F)F)c23)c([C@H](Cc2cc(F)cc(F)c2)NC(=O)Cn2nc(C(F)(F)F)c3c2C(F)(F)[C@@H]2C[C@H]32)n1)S(C)(=O)=O [GS-6207]
4.4
